Hello, the source for this data is patent US12472197B2, in case you need it.

# System: MERS-CoV (Jordan strain)
# Type: cell-based
# Test conditions: EC50 adjusted with CLE, Vero-76 cells; read-out: Adjusted EC50
Measurement name: EC50 (µM)
API: value field is a number in µM; no unit string.

Q: Which EC50 is reported for this molecule? "Nc1ncnc2c([C@@H]3N[C@H](CO)[C@@H](O)[C@H]3O)c[nH]c12"
A: 2.15

---

# Test system: MERS-CoV (Jordan strain)
# Format: cell-based
# Test conditions: Vero-76 cells, NR uptake, MOI 0.001, 3 days; read-out: EC50
Measurement name: pEC50
As a rule, pEC50 stands for the negative log10 of the concentration, concentration in M.

Q: Which pEC50 is reported for this compound? "Nc1ncnc2c([C@@H]3N[C@H](CO)[C@@H](O)[C@H]3O)c[nH]c12"
A: 4.57

---

# System: Vero76 cells
Measurement name: CC50

Q: Which CC50 is reported for this compound? "Nc1ncnc2c([C@@H]3N[C@H](CO)[C@@H](O)[C@H]3O)c[nH]c12"
A: > 296 µM
